# System: Wolbachia pipientis
# Assay Name: Anti-Wolbachia Cell-Based Screen
# Type: functional
# Design: scale not given: in the data most compounds retested in dose-response had high values
# Conditions Used: 5 µM
The campaign covered roughly 48,000 compounds. About 13,000 (27%) showed an effect of 50% or more. This is one part of the list.
Metric Name: Percent Effect (%)
Quick note: give the figure in %, leave out the unit.

[[record]]
compound = "CN(CCc1ncnn1C1Cc2ccccc2C1)C1CCS(=O)(=O)C1 (centres undefined)"
target_desc = "Wolbachia pipientis"
metric_name = "Percent Effect"
measured_result = 86.57

[[record]]
compound = "COc1cccc2sc(N3CCN(C(=O)c4cc(C)on4)CC3)nc12"
target_desc = "Wolbachia pipientis"
metric_name = "Percent Effect"
measured_result = 127.7

[[record]]
compound = "CCCc1nc(CNc2cc(CS(C)(=O)=O)ccc2Cl)no1"
target_desc = "Wolbachia pipientis"
metric_name = "Percent Effect"
measured_result = -7.067

[[record]]
compound = "Cc1cc(CNC(=O)N2CCN(c3nc(C)c(C)s3)CC2)no1"
target_desc = "Wolbachia pipientis"
metric_name = "Percent Effect"
measured_result = -6.921

[[record]]
compound = "Cc1cc(C(=O)N2CCN(c3nc4c(C(C)C)cccc4s3)CC2)no1"
target_desc = "Wolbachia pipientis"
metric_name = "Percent Effect"
measured_result = 100.9


Identify measured Percent Effect associated with Cc1cc(CNC(=O)N2CCN(c3ccccc3)CC2)no1
0.5807

Identify measured Percent Effect associated with COCCC(C)NCc1ccccc1-n1ccnc1 (centres undefined)
-12.2

Identify measured Percent Effect associated with Cc1cccc(C2(CNC(=O)C(C)NC(N)=O)CCCC2)c1 (centres undefined)
-11.64

Identify measured Percent Effect associated with CCN(Cc1cc(-c2ccccn2)no1)C1CCS(=O)(=O)C1 (centres undefined)
-17.52

Identify measured Percent Effect associated with COC(=O)c1ccc(N2CCN(C(=O)c3cc(C)on3)C(C)C2)cc1 (centres undefined)
-4.868
